system: ISR pathway (ATF4 translation); assay: ATF4 Nano Luciferase reporter integrated stress response (ISR) assay in H4 ATF4-NLuc cells; settings: Homo sapiens, H4 ATF4-NLuc (clone 17) cells; compound 30 minutes, then 50 um sodium arsenite for 6 hours; luminescence readout
measured-attribute: pIC50
The meaning of pIC50 here: minus log10 of the concentration in molar units.

Worked examples, 3 compounds total:
* O=C(CO[C@H]1C[C@@H](OC(F)(F)F)C1)NC12CC(c3cc(-c4ccc(Cl)c(F)c4)no3)(C1)C2 [Example 248] | 7.55
* O=C(CO[C@H]1C[C@@H](OC(F)(F)F)C1)NC12CC(c3cnn(-c4ccc(Cl)c(F)c4)c3)(C1)C2 [Example 236] | 7.67
* O=C(CO[C@H]1C[C@@H](OC(F)(F)F)C1)NC12CC(n3cnc(-c4ccc(F)cc4)c3)(C1)C2 [Example 136] | 7.66

Request: Given the compound O=C(COc1ccc(Cl)c(F)c1)NC12CC(c3nnc([C@@H]4C[C@H]4COC(F)(F)F)o3)(C1)C2 (single isomer, unassigned) [Example 81] , write its reported pIC50.
Response: 7.93

Request: Tell me pIC50 reported for O=C(CO[C@H]1C[C@@H](OC(F)(F)F)C1)NC12CC(n3cnc(-c4ccc(C(F)(F)F)cc4O)c3)(C1)C2 [Example 254]
Response: 8.28

Request: Using the record for O=C(COc1ccc(C(F)(F)F)cc1)NC12CC(c3nnc([C@H]4C[C@@H](OC(F)(F)F)C4)o3)(C1)C2 [Example 162] , state its measured pIC50.
Response: 7.83
